target: mouse RORγ (Mus musculus); construct: mouse, NM_011281.2 and from Ile251 to Lys516; expressed in transfected cells; host or cells: CHO cells (transient co-transfection with pG5-Luc reporter); assay: Luciferase reporter gene assay of inhibitory effect against RORγ transcriptional activity (GAL4-mRORγ plasmid in CHO cells); type: cell-based; settings: read-out: LUC EC50 (μM) mRORg
Sequence (P51450 251-516): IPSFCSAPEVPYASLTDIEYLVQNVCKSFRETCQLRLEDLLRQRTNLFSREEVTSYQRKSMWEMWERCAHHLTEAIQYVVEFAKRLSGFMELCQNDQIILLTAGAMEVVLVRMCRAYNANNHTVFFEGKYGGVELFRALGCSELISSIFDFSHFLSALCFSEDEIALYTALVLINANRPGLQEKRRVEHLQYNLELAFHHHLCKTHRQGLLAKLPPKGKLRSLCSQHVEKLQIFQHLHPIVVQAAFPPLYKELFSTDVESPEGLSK
valueType: EC50

                                   molecule                     target  result
0  CC(=O)N1C[C@H](C(=O)Nc2ccc(C)cc2C)[C@@H](c2nnc(C3CN(C(=O)N(C)C(C)C)C3)n2C2CC2)C1 (racemic)  mouse RORγ (Mus musculus)  > 3 µM
1  COc1cccc(CNC(=O)CCc2nnc(CCC(C)C)n2C2CC2)c1C  mouse RORγ (Mus musculus)  > 3 µM
2  Cc1ccc(NC(=O)C[C@H](CCC(=O)O)c2noc(-c3cc(CCC(F)(F)F)on3)c2C2CC2)c(Cl)c1  mouse RORγ (Mus musculus)  < 3 µM
3  Cc1ccc(NC(=O)C(C)C(CCOCc2ccccc2)c2nnc([C@H]3C[C@@H](CC(C)C)C3)n2C2CC2)c(C)c1 (mixture of isomers) [Example F-488]  mouse RORγ (Mus musculus)  < 3 µM

Look up EC50 for this molecule: C=CC[C@@H](CC(=O)Nc1ccc(C)cc1C)c1nnc(CCCC(C)(C)C)n1C1CC1
< 3 µM

What value of measured EC50 is listed for Cc1ccc(NC(=O)[C@H]2CC(=O)N(C)[C@@H]2c2nnc(CCCC(C)(C)C)n2C2CC2)c(C)c1 ?
< 3 µM

# EC50 lookup, item CC(=O)N1C[C@H](C(=O)Nc2ccc(C)cc2C)[C@@H](c2nnc(C3CC3CC(C)C)n2C2CC2)C1 (mixture of isomers) [Example F-340]
< 3 µM

Form field: reported EC50 of CC(C)CCc1nnc(CCC(=O)NCc2ccc(Cl)cc2)n1C1CC1
> 3 µM

Please look up its EC50: Cc1ccc(NC(=O)C[C@H](CCC(=O)O)c2noc(-c3cc(CC(C)C)nn3C)c2C2CC2)c(Cl)c1
< 3 µM

What value of measured EC50 is listed for CC(C)CCc1nnc(CCC(=O)NCc2ccc(C(F)(F)F)cc2)n1C1CC1 ?
> 3 µM

Would you kindly share the measured EC50 for CC(=O)N1C[C@H](C(=O)Nc2ccc(C)cc2C)[C@@H](c2nnc(-c3cnn(C(C)C)c3)n2C2CC2)C1 (racemic) ?
> 3 µM

I am curious: what EC50 value has been reported for Cc1ccc(NC(=O)C[C@H](CCC(=O)O)c2noc(-c3cc(CC(C)(C)C)on3)c2C2CC2)c(F)c1 ?
< 3 µM

---

target: human RORγ (Homo sapiens, UniProt P51449); construct: human, NM_005060.3 and from Ser253 to Lys518; expressed in transfected cells; host or cells: CHO cells (transient co-transfection with pG5-Luc reporter); test: Luciferase reporter gene assay of inhibitory effect against RORγ transcriptional activity (GAL4-hRORγ plasmid in CHO cells); assay type: cell-based; conditions: read-out: LUC EC50 hRORg
Sequence (P51449 253-518): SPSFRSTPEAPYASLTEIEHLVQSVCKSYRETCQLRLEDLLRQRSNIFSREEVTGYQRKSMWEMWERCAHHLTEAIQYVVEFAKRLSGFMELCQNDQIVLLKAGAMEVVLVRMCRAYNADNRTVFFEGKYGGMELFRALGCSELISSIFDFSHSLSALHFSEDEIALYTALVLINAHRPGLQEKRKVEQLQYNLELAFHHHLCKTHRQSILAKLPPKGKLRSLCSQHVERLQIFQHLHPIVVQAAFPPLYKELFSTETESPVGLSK
valueType: EC50

>>> df
                                   compound  result
0  Cc1c(F)ccc(NC(=O)C[C@H](CCO)c2nnc(-c3cc(CC(C)C)on3)n2C2CC2)c1C [Example F-661]  < 3 µM
1  Cc1ccc(NC(=O)CCc2noc(C(O)c3cc(C(C)(C)C)no3)c2C2CC2)c(Cl)c1 (racemic) [Example F-744]  > 3 µM
2  Cc1ccc(NC(=O)C(CC(=O)O)Cc2noc([C@H]3C[C@@H](CC(C)C)C3)c2C2CC2)c(C)c1 (stereo partly shown) [Example F-666]  > 3 µM
3  Cc1ccc(NC(=O)[C@H]2CN(CC(=O)N(C)C)C[C@@H]2c2nnc([C@H]3C[C@@H](CC(C)(C)C)C3)n2C2CC2)c(C)c1 [Example F-652]  < 3 µM
4  Cc1cc(Cl)ccc1NC(=O)C[C@H](CCO)c1nnc(-c2cc(CC(C)(C)C)on2)n1C1CC1 [Example F-608]  < 3 µM

Fill in the recorded EC50 for this compound, with human RORγ (Homo sapiens, UniProt P51449) as test system: Cc1cnc(NC(=O)C[C@H](CCC(=O)O)c2noc([C@H]3C[C@@H](CC(C)(C)C)C3)c2C2CC2)c(C)c1 [Example F-681]
< 3 µM

Hi! What's the reported EC50 for Cc1cc(F)ccc1NC(=O)C[C@H](CC(=O)NS(C)(=O)=O)c1noc([C@H]2C[C@@H](CC(C)C)C2)c1C1CC1 [Example F-637] on human RORγ (Homo sapiens, UniProt P51449)?
< 3 µM

---

target: human RORγ (Homo sapiens); construct: human, NM_005060.3 and from Ser253 to Lys518; expressed in transfected cells; host or cells: CHO cells (transient co-transfection with pG5-Luc reporter); test: Luciferase reporter gene assay of inhibitory effect against RORγ transcriptional activity (GAL4-hRORγ plasmid in CHO cells); format: cell-based; details: read-out: LUC EC50 hRORg
valueType: EC50

Example entries begin here.
>>> print(df.to_string())
                                   compound  result
0  Cc1ccc(NC(=O)CC(CC(=O)OC(C)(C)C)c2nnc([C@H]3C[C@@H](CC(C)C)C3)n2C2CC2)c(C)c1 (mixture of isomers)  < 3 µM
1  Cc1ccc(NC(=O)C[C@H](CCC(=O)O)c2noc([C@H]3C[C@@H](CC(C)(C)C)C3)c2C2CC2)c(C)n1  < 3 µM
2  Cc1cc(Cl)ccc1NC(=O)C[C@H](CC(C)C)c1nnc(-c2cc(CCC(C)C)on2)n1C1CC1  < 3 µM
3  Cc1c(NC(=O)C[C@H](CCO)c2nnc(-c3cc(CC(C)C)on3)n2C2CC2)ccc(F)c1F  < 3 µM
4  COc1cc(C)ccc1CNC(=O)CCc1noc(C23CC4CC(CC(C4)C2)C3)c1C1CC1  < 3 µM
5  Cc1cc(Cl)ccc1NC(=O)C[C@H](CC(C)C)c1nnc(-c2cc(CC(C)C)on2)n1C1CC1  < 3 µM

Which measured EC50 value corresponds to Cc1ccc(NC(=O)CCc2noc([C@H]3C[C@@H](CC(C)(C)C)C3)c2C2CC2)c(Cl)c1 ?
< 3 µM

Need EC50 of CCC[C@@H](CC(=O)Nc1ccc(C)cc1C)c1nnc(CCCC(C)(C)C)n1C1CC1 , thanks.
< 3 µM

# input compound: CC(C)C[C@H]1C[C@@H](c2nnc([C@@H](CCO)CC(=O)Nc3ccc(C(F)(F)F)cc3C(F)(F)F)n2C2CC2)C1 ; wanted: its EC50
< 3 µM

I have this compound here, Cc1cc(C)c(NC(=O)C[C@H](CCC(=O)O)c2noc([C@H]3C[C@@H](CC(C)(C)C)C3)c2C2CC2)cn1 , and I need its recorded EC50.
< 3 µM

EC50 for CC(C)C[C@H]1C[C@@H](c2nnc([C@@H](CCO)CC(=O)Nc3ccc(F)cc3Cl)n2C2CC2)C1 ?
< 3 µM

Data request, read-out EC50, for Cc1cc(F)ccc1NC(=O)[C@H]1CC(F)(F)C[C@@H]1c1nnc(-c2cc(CC(C)C)on2)n1C1CC1
< 3 µM

---

Measured EC50, listed per entry.
biological target: mouse RORγ (Mus musculus); construct: mouse, NM_011281.2 and from Ile251 to Lys516; expressed in transfected cells; host or cells: CHO cells (transient co-transfection with pG5-Luc reporter); assay: Luciferase reporter gene assay of inhibitory effect against RORγ transcriptional activity (GAL4-mRORγ plasmid in CHO cells); assay type: cell-based; conditions: read-out: LUC EC50 (μM) mRORg

Worked examples follow.
>>> df
                                   molecule  result
0  Cc1ccc(NC(=O)C[C@H](CCC(=O)O)c2noc(-c3cc(C(F)(F)C(C)(C)C)on3)c2C2CC2)c(Cl)c1 [Example E-40]  < 3 µM
1  Cc1c(Cl)cccc1NC(=O)CCc1nnc(CCN2CCC(F)(F)CC2)n1C1CC1 [Example F-261]  < 3 µM
2  CCn1c(CCC(=O)NCc2ccccc2)nnc1C1Cc2ccccc2C1 [Example F-22]  > 3 µM
3  Cc1c(Cl)cccc1NC(=O)CCc1nnc(CCC(C)(C)C(=O)O)n1C1CC1 [Example F-226]  > 3 µM
4  Cc1c(Cl)cccc1NC(=O)CC(CCCO)c1nnc(CCCC(C)C)n1C1CC1 (racemic) [Example F-212]  < 3 µM
5  CCn1c(CCC(=O)Nc2cc(C)cc(C)c2)nnc1CCC(C)(C)C [Example F-46]  > 3 µM
6  Cc1ccc(NCc2nnc(CCC(=O)Nc3cccc(Cl)c3C)n2C2CC2)cc1C [Example F-207]  < 3 µM

Alright, here's another molecule for you.
I'd like to know its EC50. The molecule in question is Cc1ccc(NC(=O)C[C@H](CCC(=O)O)c2noc(-c3ncc(CC(C)C)o3)c2C2CC2)c(Cl)c1 [Example E-18]
< 3 µM
